System: MS2 coat protein
Assay: apparent Kd, MS2 coat protein; higher = weaker binding; RNA-MaP array; tryptophan 2.4 mM where present
Conditions: designed as: ON switch for tryptophan; no ligand
READOUT_LABEL: apparent Kd (nM)
Numbers only, in nM.

GGUUACUCUACGGCCGCCACUGAACAUGAGGAUCACCCAUGUAAUGUUCAGACGUCUUUAGACGACAGGACCGGGUAGUGUAACC
178
UUAUGCAGGUCGGCCGCCACUACACACAUGAGGAUCACCCAUGUAGUUACUGGGUGAAGUGGCAGUAGGACCGGGACCUGCAUAU
371

# context switch: different sequence, same apparent Kd
Recorded result, "AAUCAUGAAAACAUGACAUGAGGAUCACUCCGAGGACCGGUACGGCCGCCACUCGCGAGGAGGCGGACAUGAGGAUCACCCAUGU" , apparent Kd: 254

---

System: MS2 coat protein
Assay: apparent Kd, MS2 coat protein; higher = weaker binding; RNA-MaP array; FMN 200 µM where present
Settings: ligand present: flavin mononucleotide; designed as: ON switch for flavin mononucleotide
Hi there, I'd appreciate the recorded apparent Kd for every entry that follows.
# output: numeric value plus its unit

// known answers, use as guide
GUAGCAUACGCAGGAUAUUCAUAUAAUAAAUAAACAUGAGGAUCACCCAUGUGGCGAAAGCCUUGGGAGAAGGGCGAAUGCUAC
65.5 nM
UUGGACGUCAUAGGAUAUGUAGGAUAUUCCUACAUGAGGAUCACCCAUGUUGACAUGGAAGAAGGACAGAAGGACGAUGUCCAU
10.7 nM
UCAUUUAUCACAGGAUAUAUUAGUAUACAGUUGUUUGGCUCUUACAUAUUAAUAGAAGGGUGAAACAUGAGGAUCACCCAUGUA
224 nM
AUACCUUAUGAGAAGGCGAUCAUGAAACAUGAUCGAGGAUAUCAUGUAAACAUGAGGAUCACCCAUGUAUGGGUAUUAUGGUAC
9.72 nM
UACGAUGUACAUGAGGAUCACCCAUGUCAUAUGCCCGUGACACAGGAUAUCCAGGAUAGGCCAAAGGAGAAGGGUGAUCCGCGG
139 nM

For each listed entry, give its apparent Kd.
1. GUGCCUUGGGAGAAGGCAGUAUGCAAAGCAUCCUGAGGAUAUUCAUACCGGAAACGGACAUGAGGAUCACCCAUGUGGCACAAA
2. AAAAGACAUGAGGAUCACCCAUGUCAAAACGUGGGAGGAUAUGUAUGGAAACCAGACUGUACAGAAGGCCUCUGUC
3. CGGUCGAUAUCAGGAUAUCGAUUAAUUACAUGAGGAUCACCCAUGUUGACAUGGAAUAUAACAUGCGAGAAGGGAUUACGAUCG
4. CCCAUCGCAUGAGGAUAUGGUCAGCUUUGCUGACCAGAAGGCAUGUCAAUAGACAUGAGGAUCACCCAUGUAGUUAAGAUGGGA

1: 57 nM; 2: 131 nM; 3: 10.7 nM; 4: 49.2 nM

---

System: MS2 coat protein
Experiment: apparent Kd, MS2 coat protein; higher = weaker binding; RNA-MaP array
Conditions: ligand present: flavin mononucleotide; designed as: OFF switch for flavin mononucleotide
READOUT_LABEL: apparent Kd (nM)
One number for each entry, in nM.

// known answers, use as guide
UCGUGCAGUGAGGAUAUCCCGAAGGCUUCCAUUGGAGAAGGCACUACAUGAGGAUCACCCAUGUGGCUUGAUAA
56.5
GGGUACAUCUAGAAGGAGAAUCCUCUUGACAUGAGGAUCACCCAUGUCGUAGUCAAGACUAAAAUCUAGGAUAUAGCUGUGCGU
165
GCUGACCAGGAGAAGGGAUACGGUCUCCUUGUGGAAAUGAACAUGAGGAUCACCCAUGUAUUAGAUCAGGAUAUCCAAUGGAGG
14.4
GAAUCAUGACAGAAGGCACGGAAUACCCGGCUGUGAGGAUAUGUUUGAAAACAGACAUGAGGAUCACCCAUGUCCGAAGUGUCU
555

For each listed entry, give its apparent Kd.
1. GAAUGAAGCGAGAAGGGACCAAAUGGGCAGAAACUACAUGAGGAUCACCCAUGUAAAAUAGAUAGUCAGGAUAUCGGAAGAAAG
2. CCUUAUUCAUAGAAGGAGUUCAUCCUACGUGGACUAGGAUAUAUAUUCGACAUGAGGAUCACCCAUGUAUCUGAGAUCGUGGUA

31.8
26.2

Hello, the source for this data is the EternaBench riboswitch data, in case you need it.
